- tgt: Transient receptor potential cation channel subfamily V member 1 (Homo sapiens)
- Sequence (Q8NER1 whole entry): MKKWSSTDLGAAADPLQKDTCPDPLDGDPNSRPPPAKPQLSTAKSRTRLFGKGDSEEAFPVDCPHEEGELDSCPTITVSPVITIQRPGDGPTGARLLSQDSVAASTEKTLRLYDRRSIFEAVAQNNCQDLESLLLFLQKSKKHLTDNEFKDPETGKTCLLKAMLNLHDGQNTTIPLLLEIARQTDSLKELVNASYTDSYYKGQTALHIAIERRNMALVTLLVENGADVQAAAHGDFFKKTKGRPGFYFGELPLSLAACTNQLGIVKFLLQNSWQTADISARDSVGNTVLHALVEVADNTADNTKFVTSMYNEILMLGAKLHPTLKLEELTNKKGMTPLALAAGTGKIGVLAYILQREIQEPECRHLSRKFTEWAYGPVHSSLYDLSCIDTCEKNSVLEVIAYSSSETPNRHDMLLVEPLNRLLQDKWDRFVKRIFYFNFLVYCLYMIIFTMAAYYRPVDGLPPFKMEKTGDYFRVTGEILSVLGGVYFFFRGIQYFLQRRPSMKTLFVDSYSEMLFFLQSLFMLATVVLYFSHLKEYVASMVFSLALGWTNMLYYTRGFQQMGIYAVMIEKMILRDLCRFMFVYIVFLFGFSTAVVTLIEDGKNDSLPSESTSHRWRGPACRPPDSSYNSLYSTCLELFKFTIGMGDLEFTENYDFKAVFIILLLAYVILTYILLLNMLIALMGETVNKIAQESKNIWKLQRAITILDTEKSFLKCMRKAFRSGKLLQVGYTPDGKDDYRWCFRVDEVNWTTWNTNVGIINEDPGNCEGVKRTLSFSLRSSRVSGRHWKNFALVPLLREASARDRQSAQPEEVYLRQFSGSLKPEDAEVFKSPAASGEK
- method: Displacement of [3H]RTX from human TRPV1 expressed in CHO cells after 60 mins by scintillation counting analysis
- Type: cell-based
- test parameters: read-out: Ki
pKi: −log10 of the molar value.
assay metric: pKi

Examples with answers:
• CC(C(=O)NCc1ccc(C(F)(F)F)nc1N(Cc1ccccc1)S(=O)(=O)C(C)C)c1ccc(NS(C)(=O)=O)c(F)c1 (stereo not drawn) = 7.74
• CC(C(=O)NCc1ccc(C(F)(F)F)nc1N(C(C)C)S(=O)(=O)c1ccccc1)c1ccc(NS(C)(=O)=O)c(F)c1 (stereo not drawn) = 6.39
• CC(C(=O)NCc1ccc(C(F)(F)F)nc1N(Cc1ccc(Cl)cc1)S(=O)(=O)c1ccc(F)cc1)c1ccc(NS(C)(=O)=O)c(F)c1 (stereo not drawn) = 9.05
• CCS(=O)(=O)N(Cc1ccccc1)c1nc(C(F)(F)F)ccc1CNC(=O)C(C)c1ccc(NS(C)(=O)=O)c(F)c1 (stereo not drawn) = 7.42
• Cc1ccc(CN(c2nc(C(F)(F)F)ccc2CNC(=O)C(C)c2ccc(NS(C)(=O)=O)c(F)c2)S(=O)(=O)c2ccccc2)cc1 (stereo not drawn) = 8.73

I = CC(C(=O)NCc1ccc(C(F)(F)F)nc1N(Cc1ccc(F)cc1)S(=O)(=O)c1ccc(F)cc1)c1ccc(NS(C)(=O)=O)c(F)c1 (stereo not drawn)
II = Cc1ccc(CN(c2nc(C(F)(F)F)ccc2CNC(=O)C(C)c2ccc(NS(C)(=O)=O)c(F)c2)S(=O)(=O)c2ccc(F)cc2)cc1 (stereo not drawn)
Two entries are listed, I and II . Which one carries the higher pKi? Record your answer as the label of the chosen record.
I
